Assay: Plasma pharmacokinetics following a single intravenous and subcutaneous injection of a combination of formoterol and budesonide
Settings: male, Gottingen, minipig, in vivo, Cmax, formoterol 0.4 μg/kg SC1 single site, combination, male 1-0771
Experimental: Formoterol fumarate dehydrate and budesonide were formulated in 2% PEG-400 in saline. 1 male and 1 female non-naive Gottingen minipigs (8 to 12 kg upon receipt per protocol) were utilized. The animals were housed individually. […] Plasma samples were analyzed for formoterol and budesonide using a qualified liquid chromatography/mass spectrometry/mass mass spectrometry (LC/MS/MS) method. The lower limit of quantitation (LLOQ) was 1.00 pg/mL for formoterol and 25.0 pg/mL for budesonide. […]
EXPERIMENTAL_READOUT: Cmax (ng/mL)
Numbers only; they are read as ng/mL.

Input line: Fill in the blank: the reported Cmax of COc1ccc(CC(C)NCC(O)c2ccc(O)c(NC=O)c2)cc1 (stereo not shown) is ____.
Output line: 0.378

###

Experiment: Plasma pharmacokinetics following a single intravenous and subcutaneous injection of a combination of formoterol and budesonide
Conditions: female, Gottingen, minipig, in vivo, Plasma concentration of formoterol, SC1 0.4 μg/kg, combination, female 2-0623, 2.00 hr
EXPERIMENTAL_READOUT: concentration at 2 hr (ng/mL)
Numbers only; they are read as ng/mL.

Input line: Fill in the blank: the reported concentration at 2 hr of COc1ccc(CC(C)NCC(O)c2ccc(O)c(NC=O)c2)cc1 (stereo not shown) is ____.
Output line: 0.0512

###

Experiment: Plasma pharmacokinetics following a single intravenous and subcutaneous injection of a combination of formoterol and budesonide
Conditions: female, Gottingen, minipig, in vivo, Plasma concentration of formoterol, SC1 0.4 μg/kg, combination, female 2-0623, 8.00 hr
EXPERIMENTAL_READOUT: concentration at 8 hr (pg/mL)
Numbers only; they are read as pg/mL.

Input line: Fill in the blank: the reported concentration at 8 hr of COc1ccc(CC(C)NCC(O)c2ccc(O)c(NC=O)c2)cc1 (stereo not shown) is ____.
Output line: 8.58

###

Test: Plasma pharmacokinetics following a single intravenous and subcutaneous injection of a combination of formoterol and budesonide
Conditions: male, Gottingen, minipig, in vivo, Plasma concentration of formoterol, SC1 0.4 μg/kg, combination, male 1-0771, 0.0833 hr
EXPERIMENTAL_READOUT: concentration at 0.0833 hr

Input line: Fill in the blank: the reported concentration at 0.0833 hr of COc1ccc(CC(C)NCC(O)c2ccc(O)c(NC=O)c2)cc1 (stereo not shown) [Formoterol, formoterol] is ____.
Output line: 0.294 ng/mL

###

Test: Plasma pharmacokinetics following a single intravenous and subcutaneous injection of a combination of formoterol and budesonide
Details: female, Gottingen, minipig, in vivo, Plasma concentration of formoterol, SC5 0.4 μg/kg, combination, female 2-0623, 24.0 hr
EXPERIMENTAL_READOUT: concentration at 24 hr (pg/mL)
Numbers only; they are read as pg/mL.

Input line: Fill in the blank: the reported concentration at 24 hr of COc1ccc(CC(C)NCC(O)c2ccc(O)c(NC=O)c2)cc1 (stereo not shown) [Formoterol, formoterol] is ____.
Output line: 6.95

###

Assay: Plasma pharmacokinetics following a single intravenous and subcutaneous injection of a combination of formoterol and budesonide
Conditions: female, Gottingen, minipig, in vivo, Plasma concentration of formoterol, SC5 0.4 μg/kg, combination, female 2-0623, 0.500 hr
EXPERIMENTAL_READOUT: concentration at 0.5 hr (ng/mL)
Numbers only; they are read as ng/mL.

Input line: Fill in the blank: the reported concentration at 0.5 hr of COc1ccc(CC(C)NCC(O)c2ccc(O)c(NC=O)c2)cc1 (stereo not shown) [Formoterol, formoterol] is ____.
Output line: 0.1

###

Assay: Plasma pharmacokinetics following a single intravenous and subcutaneous injection of a combination of formoterol and budesonide
Settings: male, Gottingen, minipig, in vivo, Plasma concentration of formoterol, SC1 0.4 μg/kg, combination, male 1-0771, 0.0333 hr
EXPERIMENTAL_READOUT: concentration at 0.0333 hr (ng/mL)
Numbers only; they are read as ng/mL.

Input line: Fill in the blank: the reported concentration at 0.0333 hr of COc1ccc(CC(C)NCC(O)c2ccc(O)c(NC=O)c2)cc1 (stereo not shown) [Formoterol, formoterol] is ____.
Output line: 0.378

###

Assay: in vivo
Conditions: female, Gottingen, minipig, in vivo, sc, 0.4 ug/kg, AUCinf
EXPERIMENTAL_READOUT: AUC(0-inf)

Input line: Fill in the blank: the reported AUC(0-inf) of OCc1cc(C(O)CNCCCCCCOCCCCc2ccccc2)ccc1O (racemic) is ____.
Output line: 0.164 ng·h/mL

###

Experiment: Plasma pharmacokinetics following a single intravenous and subcutaneous injection of a combination of formoterol and budesonide
Conditions: female, Gottingen, minipig, in vivo, F (bioavailability), formoterol 0.4 μg/kg SC5 (5 sites), combination, female 2-0623
EXPERIMENTAL_READOUT: bioavailability (%)
Numbers only; they are read as %.

Input line: Fill in the blank: the reported bioavailability of COc1ccc(CC(C)NCC(O)c2ccc(O)c(NC=O)c2)cc1 (stereo not shown) is ____.
Output line: 176

###

Assay: Plasma pharmacokinetics following a single intravenous and subcutaneous injection of a combination of formoterol and budesonide
Conditions: male, Gottingen, minipig, in vivo, Plasma concentration of formoterol, SC5 0.4 μg/kg, combination, male 1-0771, 0.750 hr
EXPERIMENTAL_READOUT: concentration at 0.75 hr (ng/mL)
Numbers only; they are read as ng/mL.

Input line: Fill in the blank: the reported concentration at 0.75 hr of COc1ccc(CC(C)NCC(O)c2ccc(O)c(NC=O)c2)cc1 (stereo not shown) [Formoterol, formoterol] is ____.
Output line: 0.0941

###

Assay: in vivo
Settings: female, Gottingen, minipig, in vivo, sc, 4 ug/kg, F (bioavailability)
EXPERIMENTAL_READOUT: bioavailability (%)
Numbers only; they are read as %.

Input line: Fill in the blank: the reported bioavailability of OCc1cc(C(O)CNCCCCCCOCCCCc2ccccc2)ccc1O (racemic) is ____.
Output line: 126

###

Assay: Plasma pharmacokinetics following a single intravenous and subcutaneous injection of a combination of formoterol and budesonide
Conditions: female, Gottingen, minipig, in vivo, t1/2, formoterol 0.4 μg/kg SC5 (5 sites), combination, female 2-0623
EXPERIMENTAL_READOUT: half-life (h)
Numbers only; they are read as h.

Input line: Fill in the blank: the reported half-life of COc1ccc(CC(C)NCC(O)c2ccc(O)c(NC=O)c2)cc1 (stereo not shown) is ____.
Output line: 12.8

###

Test: in vivo
Settings: male, Gottingen, minipig, in vivo, sc, 4 ug/kg, Cmax
EXPERIMENTAL_READOUT: Cmax (ng/mL)
Numbers only; they are read as ng/mL.

Input line: Fill in the blank: the reported Cmax of OCc1cc(C(O)CNCCCCCCOCCCCc2ccccc2)ccc1O (racemic) is ____.
Output line: 0.575

###

Assay: Plasma pharmacokinetics following a single intravenous and subcutaneous injection of a combination of formoterol and budesonide
Conditions: male, Gottingen, minipig, in vivo, Plasma concentration of formoterol, SC5 0.4 μg/kg, combination, male 1-0771, 0.500 hr
EXPERIMENTAL_READOUT: concentration at 0.5 hr (ng/mL)
Numbers only; they are read as ng/mL.

Input line: Fill in the blank: the reported concentration at 0.5 hr of COc1ccc(CC(C)NCC(O)c2ccc(O)c(NC=O)c2)cc1 (stereo not shown) is ____.
Output line: 0.0938

###

Test: Plasma pharmacokinetics following a single intravenous and subcutaneous injection of a combination of formoterol and budesonide
Conditions: male, Gottingen, minipig, in vivo, Plasma concentration of formoterol, SC5 0.4 μg/kg, combination, male 1-0771, 2.00 hr
EXPERIMENTAL_READOUT: concentration at 2 hr (ng/mL)
Numbers only; they are read as ng/mL.

Input line: Fill in the blank: the reported concentration at 2 hr of COc1ccc(CC(C)NCC(O)c2ccc(O)c(NC=O)c2)cc1 (stereo not shown) [Formoterol, formoterol] is ____.
Output line: 0.0711

###

Assay: Plasma pharmacokinetics following single intravenous and subcutaneous injections of salmeterol xinafoate
Settings: male, Gottingen, minipig, in vivo, sc, 0.04 ug/kg
EXPERIMENTAL_READOUT: Tmax (min)
Numbers only; they are read as min.

Input line: Fill in the blank: the reported Tmax of OCc1cc(C(O)CNCCCCCCOCCCCc2ccccc2)ccc1O (racemic) [Salmeterol] is ____.
Output line: 5

###

Assay: in vivo
Conditions: female, Gottingen, minipig, in vivo, 0.4 ug/kg, F (bioavailability)
EXPERIMENTAL_READOUT: bioavailability (%)
Numbers only; they are read as %.

Input line: Fill in the blank: the reported bioavailability of OCc1cc(C(O)CNCCCCCCOCCCCc2ccccc2)ccc1O (racemic) is ____.
Output line: 112
